target: MALT1 (Homo sapiens (Human))
Sequence (Q9UDY8 whole entry): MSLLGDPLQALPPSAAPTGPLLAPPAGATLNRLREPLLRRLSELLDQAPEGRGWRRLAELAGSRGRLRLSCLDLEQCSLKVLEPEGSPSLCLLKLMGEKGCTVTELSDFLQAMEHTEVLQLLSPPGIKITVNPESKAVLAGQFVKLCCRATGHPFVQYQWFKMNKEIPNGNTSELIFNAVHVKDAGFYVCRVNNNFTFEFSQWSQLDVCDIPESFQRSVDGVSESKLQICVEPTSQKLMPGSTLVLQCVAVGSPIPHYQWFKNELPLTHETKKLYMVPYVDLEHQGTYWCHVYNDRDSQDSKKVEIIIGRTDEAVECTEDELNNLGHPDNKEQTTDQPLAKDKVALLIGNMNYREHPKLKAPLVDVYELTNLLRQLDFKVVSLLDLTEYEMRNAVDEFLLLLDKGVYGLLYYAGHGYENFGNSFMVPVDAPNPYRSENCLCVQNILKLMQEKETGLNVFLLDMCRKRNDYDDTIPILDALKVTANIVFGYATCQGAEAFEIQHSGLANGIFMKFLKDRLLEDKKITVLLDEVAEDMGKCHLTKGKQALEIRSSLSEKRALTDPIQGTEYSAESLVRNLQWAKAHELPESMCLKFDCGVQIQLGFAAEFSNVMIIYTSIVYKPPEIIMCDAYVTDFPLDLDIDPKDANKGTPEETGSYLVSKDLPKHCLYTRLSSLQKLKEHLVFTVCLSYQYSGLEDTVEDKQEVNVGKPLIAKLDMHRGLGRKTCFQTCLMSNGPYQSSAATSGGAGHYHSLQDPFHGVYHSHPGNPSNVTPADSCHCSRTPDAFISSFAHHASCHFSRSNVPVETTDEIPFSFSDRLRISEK
Where a SMILES comes first, the peptide text is derived from it. [ ]: non-standard residue; d: D form. The star is where a group is joined. Phg = N[C@H](C(=O)O)c1ccccc1; Cbz = O=C(OCc1ccccc1)*; CH2F = FC*
quantity-measured: Ki (nM)

(A) N=C(N)NCCC[C@H](NC(=O)[C@@H]1CCCN1C(=O)[C@@H](NC(=O)OCc1ccccc1)c1ccccc1)C(=O)CF [Compound 104] (Cbz-[Phg]-Pro-Arg-CH2F)
(B) CC(C)[C@H](NC(=O)c1cnn(C)c1)C(=O)N1CCC[C@H]1C(=O)N[C@@H](CCCNC(=N)N)C(=O)CF
Which entry has a larger number for Ki, A or B ? Please indicate the selected item by its label.
A
(A: 154 nM, B: 100 nM)
